// data source = ChEMBL document CHEMBL1201862

Give measured GI50 for each item. Keep answers brief.
Tested on: EKVX
Test: NCI tumour cell line growth inhibition, 48 h
Active and inactive are the calls of the source. No stated cut-off is given here; in the data, active = GI50 up to about 1.1 µM and inactive = higher.

# get_value(readout= GI50, system= EKVX) for COc1ccc(/C(=N/N=c2[nH]c3ccccc3[nH]2)C(=O)O)cc1
> 100 µM (inactive)

Form field: GI50 recorded for NNC(=O)C(=O)N/N=C1\CCCC1C(=O)CCC(=O)Nc1cccc(Cl)c1 (stereo not given) with EKVX (enter value)
> 100 µM (inactive)

Request: GI50, test system EKVX, entry C=C1C(=O)C23CC1CCC2C12CO[C@@]3(O)[C@@H](O)C1C(C)(C)C=CC2=O (stereo not given in full)
5.26 µM (inactive)

State its GI50 on EKVX: Cc1ccc(S(=O)(=O)C(C#N)c2nc3ccccc3nc2-n2cccn2)cc1 (stereo not given)
> 100 µM (inactive)

Recall the recorded GI50 for CC1(C)CCC(=O)c2c(O)ccc(O)c21 with EKVX and state it.
> 100 µM (inactive)

// lookup GI50 | system=EKVX | key= O=C1CS/C(=N/N=C/c2cn(Cc3ccc(Cl)cc3Cl)c3ccccc23)N1
20.9 µM (inactive)

// lookup GI50 | system=EKVX | key= O=C1c2cscc2C(=O)C1(O)O
36.1 µM (inactive)

Short answer please: GI50, EKVX, entry COc1ccc(C2N(c3ccc(F)c([N+](=O)[O-])c3)C(=O)N3C(c4ccc(OC)cc4)N(c4ccc(F)c([N+](=O)[O-])c4)C(=O)N23)cc1 (stereo not given)
> 100 µM (inactive)

Field: GI50 (EKVX). Entry: Cc1cc(-c2ccc[nH]2)on1
> 100 µM (inactive)

Requested read-out GI50, target or system EKVX, entry CC1N[B@@-](C)(c2ccc(C(F)(F)F)cc2)OC1c1ccccc1 (stereo not given in full)
41.4 µM (inactive)
